Give measured melting point for each item. Keep answers brief.

# compound COc1nc2ccc(Br)cc2c2c1C(C)(OCC(O)Cn1ccc(-c3ccc(C(F)(F)F)cc3)n1)c1ccccc1-2 (centres unmarked) ; its melting point = 65 to 67 °C

Entry COc1nc2ccc(Br)cc2cc1C(c1ccccc1)n1ccnc1 (racemic) , melting point reported as 161 to 162 °C

Value of measured melting point for the entry CC(O)c1cc(F)ccc1Oc1nc2ccc(NC(=O)Nc3cccc([N+](=O)[O-])c3)cc2cc1Cc1ccccc1 (centres unmarked) : 217 to 219 °C

Recorded result, COc1nc2ccc(Br)cc2cc1C(c1ccccc1)n1cccn1 (racemic) , melting point: 142 to 144 °C

The compound identified as COc1nc2ccc(Br)cc2cc1C(Nc1ccc2oc(=O)ccc2c1)c1ccccc1 (racemic) registered its melting point at 88 to 89 °C

Recorded result, CC(c1cc(F)ccc1Oc1nc2ccc(-n3cc(-c4ccccc4)nn3)cc2cc1Cc1ccccc1)n1ccnc1 (centres unmarked) , melting point: 118 to 120 °C
